These data points were gathered from patent US12233073B2.

test: Pharmacokinetics: plasma levels after topical RB cream; type: in vivo, SKH1-Hrhr hairless mice; conditions: SKH1-Hrhr hairless, mouse, plasma, topical, 1 mg, 2 h post-dose; 1.0 mg RB in 100 μl cream topically; BDL = below detection limit (~2 ng/ml); read-out: ng/ml RB (plasma, single mouse)
ASSAY_ENDPOINT: concentration at 2 h (ng/mL)
Enter your answer as a number in ng/mL; do not include the unit.

Value of measured concentration at 2 h for the entry C=CC[N+]1([C@H]2C[C@H]3[C@@H]4CC[C@H]5C[C@H](O)[C@@H](N6CCOCC6)C[C@]5(C)[C@H]4CC[C@]3(C)[C@H]2OC(C)=O)CCCC1 [rocuronium bromide] : 11

* * *

Test system: elastin
Experiment: Induction of elastin
Format: cell-based
Settings: first rating in cell
Description: Higher elastin and collagen activity is indicative of anti-wrinkling or anti-aging effects. Activation of the antioxidant response element (ARE) pathway was also evaluated. The NF-E2-related factor (Nrf2) is a critical transcription factor in oxidative stress signaling. Nrf2 binds to the ARE and serves as a master regulator in cellular defense pathways. The ARE pathway mediates the transcriptional induction of a battery of genes that help to protect the cells against oxidative damage. […]

{"columns": ["COMPOUND", "Rating (Elastin)"],
 "data": [
  ["Oc1cc(O)c2cc(O)c(-c3cc(O)c(O)c(O)c3)[o+]c2c1", "none"],
  ["O=c1c(O)c(-c2ccc(O)c(O)c2)oc2cc(O)c(O)c(O)c12", "none"],
  ["C=CCc1ccc(O)c(-c2cc(CC=C)ccc2O)c1", "none"]
]}

* * *

test system: SSL-induced skin tumors in SKH-1 hairless mice; details: SSL-exposed; compound in cream, percent per TABLE 5; 15 mice
ASSAY_ENDPOINT: Number of dead mice
Field format: numeric only.

Examples with answers:
{"columns": ["COMPOUND", "VALUE"],
 "data": [
  ["COc1ccc(C(=O)CC(=O)c2ccc(C(C)(C)C)cc2)cc1", 1],
  ["COc1ccc(C(=O)c2ccccc2)c(O)c1", 1],
  ["CCCCC(CC)COC(=O)C=Cc1ccc(OC)cc1 (stereo not shown) [Octinoxate]", 2],
  ["CCCCC(CC)COC(=O)c1ccccc1O (stereo not shown) [Octisalate]", 10]
]}

Kindly consider the entry below.
CC1CC(OC(=O)c2ccccc2O)CC(C)(C)C1 (stereo not shown) [Homosalate] has a reported Number of dead mice of 1

* * *

Parameter fold induction at 50 µg/mL: see the listing below.
system: antioxidant response element (ARE) pathway; test: Activation of the antioxidant response element (ARE) pathway; format: cell-based; details: final dose 50 μg/ml
Respond using a number only.

Example results:
{"columns": ["MOLECULE", "fold induction at 50 µg/mL"],
 "data": [
  ["O=C1C[C@@H](c2ccc(O)cc2)Oc2cc(O)cc(O)c21", 2],
  ["O=c1cc(-c2ccc(O)c(O)c2)oc2cc(O)cc(O)c12", 5],
  ["O=c1c(-c2ccc(O)c(O)c2)coc2cc(O)ccc12 [HI-1, 7,3,4′-trihydroxyisoflavone]", 3]
]}

Would you kindly look at the next entry?
The recorded fold induction at 50 µg/mL for entry O=c1c(O)c(-c2ccc(O)cc2)oc2cc(O)ccc12 [HI-7, 3,7,4′-trihydroxyflavone] equals 1.5

* * *

fold induction at 10 µg/mL for assorted compounds
test system: collagen 1A; experiment: Induction of collagen 1A; assay type: cell-based; details: final dose 10 μg/ml
// keep it numeric: no unit symbol after the value

Would you please look over these solved cases?
{"columns": ["COMPOUND", "fold induction at 10 µg/mL"],
 "data": [
  ["O=c1c(-c2ccc(O)c(O)c2)coc2cc(O)ccc12 [HI-1, 7,3,4′-trihydroxyisoflavone]", 1.5],
  ["O=c1c(-c2ccc(O)cc2)coc2cc(O)c(O)cc12 [HI-4, 6,7,4′-trihydroxyisoflavone]", 2],
  ["O=c1cc(-c2ccc(O)c(O)c2)oc2cc(O)cc(O)c12", 2],
  ["COc1cc(-c2oc3cc(O)cc(O)c3c(=O)c2O)ccc1O", 1.4]
]}

Okay, next one:
For record O=c1c(O)c(-c2ccc(O)cc2)oc2cc(O)ccc12 [HI-7, 3,7,4′-trihydroxyflavone] the listed fold induction at 10 µg/mL is 3

* * *

tested on: UV-induced ROS; experiment: Inhibition of the production of UV-induced reactive oxygen species (ROS); type: cell-based; conditions: final dose 10 μg/ml; read-out: % inhibition of UV-induced ROS
Recorded inhibition at 10 µg/mL, one value per entry.

Worked set:
{"columns": ["MOLECULE", "VALUE"],
 "data": [
  ["O=c1c(-c2ccc(O)c(O)c2)coc2cc(O)ccc12 [HI-1, 7,3,4′-trihydroxyisoflavone]", "> 70%"],
  ["O=c1c(-c2ccc(O)cc2)coc2cc(O)c(O)cc12 [HI-4, 6,7,4′-trihydroxyisoflavone]", "> 70%"]
]}

As a next step, examine the molecule that follows.
// `O=c1c(O)c(-c2ccc(O)cc2)oc2c(O)c(O)cc(O)c12` : inhibition at 10 µg/mL value = ~50%

* * *

system: elastin; assay: Induction of elastin; format: cell-based; details: final dose 10 μg/ml
Entries and their measured fold induction at 10 µg/mL follow.
Give the figure by itself; no unit, no explanation.

{"columns": ["MOLECULE", "fold induction at 10 µg/mL"],
 "data": [
  ["O=c1cc(-c2ccc(O)c(O)c2)oc2cc(O)cc(O)c12", 1.8],
  ["O=C1C[C@@H](c2ccc(O)cc2)Oc2cc(O)cc(O)c21", 1.5],
  ["O=c1c(-c2ccc(O)cc2)coc2cc(O)c(O)cc12 [HI-4, 6,7,4′-trihydroxyisoflavone]", 2],
  ["O=c1c(O)c(-c2ccc(O)cc2)oc2cc(O)ccc12 [HI-7, 3,7,4′-trihydroxyflavone]", 3],
  ["COc1cc(-c2oc3cc(O)cc(O)c3c(=O)c2O)ccc1O", 1.7]
]}

The molecule O=c1c(-c2ccc(O)c(O)c2)coc2cc(O)ccc12 [HI-1, 7,3,4′-trihydroxyisoflavone] showed fold induction at 10 µg/mL equal to 1.5

Lab note: `O=c1c(O)c(-c2ccc(O)cc2)oc2c(O)c(O)cc(O)c12` gave fold induction at 10 µg/mL of 2

* * *

tested on: UV-induced ROS; assay: Inhibition of the production of UV-induced reactive oxygen species (ROS); format: cell-based; conditions: final dose 10 μg/ml; read-out: % inhibition of UV-induced ROS
Parameter inhibition at 10 µg/mL: see the listing below.

# example entries with known answers
{"columns": ["COMPOUND", "VALUE"],
 "data": [
  ["O=c1c(O)c(-c2cc(O)c(O)c(O)c2)oc2cc(O)cc(O)c12", "> 70%"],
  ["COc1cc(-c2oc3cc(O)cc(O)c3c(=O)c2O)ccc1O", "~50%"],
  ["O=c1cc(-c2ccc(O)c(O)c2)oc2cc(O)cc(O)c12", "> 70%"]
]}

Record summary for O=c1c(O)c(-c2ccc(O)cc2)oc2cc(O)ccc12 [HI-7, 3,7,4′-trihydroxyflavone] : reported inhibition at 10 µg/mL = ~50%

Sure, the documented inhibition at 10 µg/mL for `O=C1C[C@@H](c2ccc(O)cc2)Oc2cc(O)cc(O)c21` is ~25%

* * *

system: SSL-induced skin tumors in SKH-1 hairless mice; details: SSL-exposed; compound in cream, percent per TABLE 5; 15 mice
Threshold-based label: Total no. of tumors under 40 gives satisfied, Total no. of tumors not under 40 gives not satisfied.

{"columns": ["COMPOUND", "CATEGORY"],
 "data": [
  ["COc1ccc(C(=O)CC(=O)c2ccc(C(C)(C)C)cc2)cc1", "not satisfied"]
]}

Asked: In the record for [O]=[Zn] [Zinc oxide] , is Total no. of tumors less than 40?
Given back: satisfied

Asked: Below 40 on Total no. of tumors? Entry `COc1ccc(C(=O)c2ccccc2)c(O)c1`
Given back: satisfied

Asked: In the record for CCCCC(CC)COC(=O)C(C#N)=C(c1ccccc1)c1ccccc1 (stereo not shown) , is Total no. of tumors less than 40?
Given back: satisfied

Asked: Quick check: Total no. of tumors of CCCCC(CC)COC(=O)C=Cc1ccc(OC)cc1 (stereo not shown) [Octinoxate] under 40?
Given back: satisfied

* * *

assay: Pharmacokinetics: plasma levels after topical RB cream; format: in vivo, SKH1-Hrhr hairless mice; conditions: SKH1-Hrhr hairless, mouse, plasma, topical, 1 mg, 6 h post-dose; 1.0 mg RB in 100 μl cream topically; BDL = below detection limit (~2 ng/ml); read-out: ng/ml RB (plasma, single mouse)
ASSAY_ENDPOINT: concentration at 6 h (ng/mL)
Please state the figure in ng/mL; there is no need to write the unit.

The reported concentration at 6 h of the compound C=CC[N+]1([C@H]2C[C@H]3[C@@H]4CC[C@H]5C[C@H](O)[C@@H](N6CCOCC6)C[C@]5(C)[C@H]4CC[C@]3(C)[C@H]2OC(C)=O)CCCC1 [rocuronium bromide] was 7
